IC50 values by entry
assaySystem: Pim-3 (Homo sapiens (Human))
procedureDetails: Pim-3 kinase assay
Assay type: biochemical
assayContext: 1 mM ATP; read-out: PIM3 IC50
measurementLabel: IC50

| molecule | assaySystem | measurementLabel | measuredResult |
| --- | --- | --- | --- |
| C[C@@H]1C[C@H](N)C[C@H](c2ccncc2NC(=O)c2ccc(F)c3cc(N4CCN(C)C(=O)[C@@H]4C)cnc23)C1 | Pim-3 (Homo sapiens (Human)) | IC50 | ≤ 10 nM |
| C[C@@H]1C[C@H](N)C[C@H](c2ccncc2NC(=O)c2ccc(F)c3cc(N(C)CC4CC4)cnc23)C1 | Pim-3 (Homo sapiens (Human)) | IC50 | ≤ 10 nM |
| C[C@@H]1C[C@H](N)C[C@H](c2ccncc2NC(=O)c2ccc(F)c3cc(N4C5CCC4COC5)cnc23)C1 | Pim-3 (Homo sapiens (Human)) | IC50 | ≤ 10 nM |
| C[C@@H]1C[C@H](N)C[C@H](c2ccncc2NC(=O)c2ccc(F)c3cc(N4CCCN(C)S4(=O)=O)cnc23)C1 | Pim-3 (Homo sapiens (Human)) | IC50 | ≤ 10 nM |
| C[C@@H]1C[C@H](N)C[C@H](c2ccncc2NC(=O)c2ccc(F)c3cc(N4CCCC[C@@H]4C)cnc23)C1 | Pim-3 (Homo sapiens (Human)) | IC50 | 10 to 50 nM |
| C[C@@H]1C[C@H](N)C[C@H](c2ccncc2NC(=O)c2ccc(F)c3cc(-c4ccc(F)c5cccnc45)cnc23)C1 | Pim-3 (Homo sapiens (Human)) | IC50 | 10 to 50 nM |
| C[C@@H]1C[C@H](N)C[C@H](c2ccncc2NC(=O)c2ccc(F)c3cc(N4CCC4)cnc23)C1 | Pim-3 (Homo sapiens (Human)) | IC50 | 10 to 50 nM |
| CC(C)N(C)c1cnc2c(C(=O)Nc3cnccc3[C@@H]3C[C@H](C)C[C@H](N)C3)ccc(F)c2c1 | Pim-3 (Homo sapiens (Human)) | IC50 | ≤ 10 nM |
| C[C@@H]1C[C@H](N)C[C@H](c2ccncc2NC(=O)c2ccc(F)c3cc(N(C)c4ccccc4)cnc23)C1 | Pim-3 (Homo sapiens (Human)) | IC50 | ≤ 10 nM |
| C[C@@H]1C[C@H](N)C[C@H](c2ccncc2NC(=O)c2ccc(F)c3cc(N4CC5(CCC5)C4)cnc23)C1 | Pim-3 (Homo sapiens (Human)) | IC50 | ≤ 10 nM |
| COC1CCCN(c2cnc3c(C(=O)Nc4cnccc4[C@@H]4C[C@H](C)C[C@H](N)C4)ccc(F)c3c2)CC1 (some centres unmarked) | Pim-3 (Homo sapiens (Human)) | IC50 | ≤ 10 nM |
| C[C@@H]1C[C@H](N)C[C@H](c2ccncc2NC(=O)c2ccc(F)c3cc(-c4cn[nH]c4)cnc23)C1 | Pim-3 (Homo sapiens (Human)) | IC50 | ≤ 10 nM |
| C[C@@H]1C[C@H](N)C[C@H](c2ccncc2NC(=O)c2ccc(F)c3cc(N4CCC(C)(O)CC4)cnc23)C1 | Pim-3 (Homo sapiens (Human)) | IC50 | 10 to 50 nM |
| CC1CN(c2cnc3c(C(=O)Nc4cnccc4[C@@H]4C[C@H](C)C[C@H](N)C4)ccc(F)c3c2)C(C)CO1 (some centres unmarked) | Pim-3 (Homo sapiens (Human)) | IC50 | 10 to 50 nM |

###

assaySystem: Pim-2 (Homo sapiens (Human), UniProt Q9P1W9)
Sequence (Q9P1W9 whole entry): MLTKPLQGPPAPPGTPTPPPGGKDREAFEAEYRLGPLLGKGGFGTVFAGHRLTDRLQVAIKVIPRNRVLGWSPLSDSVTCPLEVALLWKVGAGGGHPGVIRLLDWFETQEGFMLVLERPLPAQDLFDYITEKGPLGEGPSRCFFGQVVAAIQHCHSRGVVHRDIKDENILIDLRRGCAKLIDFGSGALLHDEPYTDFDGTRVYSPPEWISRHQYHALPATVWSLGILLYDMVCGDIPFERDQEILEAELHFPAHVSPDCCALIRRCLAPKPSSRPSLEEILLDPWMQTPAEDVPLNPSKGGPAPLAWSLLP
pIC50: −log10 of the molar value.
Reported pIC50 by item:
measurementLabel: pIC50

| compound | measurementLabel | measuredResult |
| --- | --- | --- |
| C[C@@H]1C[C@H](N)C[C@H](c2ccncc2NC(=O)c2ccc(F)c3cc(N4CCC4)cnc23)C1 | pIC50 | 6.00 to 7.00 |
| CC1CCCCN1c1cnc2c(C(=O)Nc3cnccc3[C@@H]3C[C@H](C)C[C@H](N)C3)cccc2c1 (some centres unmarked) | pIC50 | 6.00 to 7.00 |
| C[C@@H]1C[C@H](N)C[C@H](c2ccncc2NC(=O)c2ccc(F)c3cc(N(C)C4CCCC4C#N)cnc23)C1 (some centres unmarked) | pIC50 | ≥ 7.00 |
| C[C@@H]1C[C@H](N)C[C@H](c2ccncc2NC(=O)c2ccc(F)c3cc(N4CCC(F)(F)CC4)cnc23)C1 | pIC50 | 6.00 to 7.00 |
| CC1CCC(C)N1c1cnc2c(C(=O)Nc3cnccc3[C@@H]3C[C@H](C)C[C@H](N)C3)ccc(F)c2c1 (some centres unmarked) | pIC50 | 6.00 to 7.00 |
| C[C@@H]1C[C@H](N)C[C@H](c2ccncc2NC(=O)c2ccc(F)c3cc(N4CCOC(CO)C4)cnc23)C1 (some centres unmarked) | pIC50 | 6.00 to 7.00 |
| CC(C)N(C)c1cnc2c(C(=O)Nc3cnccc3[C@@H]3C[C@H](C)C[C@H](N)C3)ccc(F)c2c1 | pIC50 | ≥ 7.00 |
| C[C@@H]1C[C@H](N)C[C@H](c2ccncc2NC(=O)c2cccc3cc(N(C)CC(F)F)cnc23)C1 | pIC50 | 6.00 to 7.00 |
| COC(=O)N1CCN(c2cnc3c(C(=O)Nc4cnccc4[C@@H]4C[C@H](C)C[C@H](N)C4)ccc(F)c3c2)[C@@H](C)C1 | pIC50 | ≥ 7.00 |
| CO[C@H]1CCN(c2cnc3c(C(=O)Nc4cnccc4[C@@H]4C[C@H](C)C[C@H](N)C4)ccc(F)c3c2)C1 | pIC50 | ≥ 7.00 |
| CC1CCN(c2cnc3c(C(=O)Nc4cnccc4[C@@H]4C[C@H](C)C[C@H](N)C4)ccc(F)c3c2)CC1 | pIC50 | 6.00 to 7.00 |
| C[C@@H]1C[C@H](N)C[C@H](c2ccncc2NC(=O)c2ccc(F)c3cc(N4C[C@@H](O)C[C@@H]4C)cnc23)C1 | pIC50 | ≥ 7.00 |
| Cc1ccc(N(C)c2cnc3c(C(=O)Nc4cnccc4[C@@H]4C[C@H](C)C[C@H](N)C4)ccc(F)c3c2)c(C)n1 | pIC50 | ≥ 7.00 |
| C[C@@H]1C[C@H](N)C[C@H](c2ccncc2NC(=O)c2ccc(F)c3cc(N4CCCC4=O)cnc23)C1 | pIC50 | 6.00 to 7.00 |

###

Notes on IC50 obtained with Pim-2 (Homo sapiens (Human), UniProt Q9P1W9).

| compound | IC50 |
| --- | --- |
| C[C@@H]1C[C@H](N)C[C@H](c2ccncc2NC(=O)c2ccc(F)c3cc(N4CCN(C)C(=O)C4)cnc23)C1 [Example 75] | ≤ 100 nM |
| C[C@@H]1C[C@H](N)C[C@H](c2ccncc2NC(=O)c2ccc(F)c3cc(N4CCCC(O)CC4)cnc23)C1 (stereo partly drawn) [Example 104] | ≤ 100 nM |
| C[C@@H]1C[C@H](N)C[C@H](c2ccncc2NC(=O)c2ccc(F)c3cc(N4CC5(CCC5)C4)cnc23)C1 [Example 107] | ≤ 100 nM |
| C[C@@H]1C[C@H](N)C[C@H](c2ccncc2NC(=O)c2ccc(F)c3cc(N(C)c4ncccc4F)cnc23)C1 [Example 142] | ≤ 100 nM |
| Cc1nn(C)cc1-c1cnc2c(C(=O)Nc3cnccc3[C@@H]3C[C@H](C)C[C@H](N)C3)ccc(F)c2c1 [Example 63] | 100 to 1000 nM |
| CCOC1CN(c2cnc3c(C(=O)Nc4cnccc4[C@@H]4C[C@H](C)C[C@H](N)C4)ccc(F)c3c2)C1 [Example 122] | ≤ 100 nM |
| COC(=O)N1C[C@H]2C[C@@H]1CN2c1cnc2c(C(=O)Nc3cnccc3[C@@H]3C[C@H](C)C[C@H](N)C3)ccc(F)c2c1 [Example 90] | ≤ 100 nM |
| CCN(C)c1cnc2c(C(=O)Nc3cnccc3[C@@H]3C[C@H](C)C[C@H](N)C3)ccc(F)c2c1 [Example 20] | ≤ 100 nM |
| C[C@@H]1C[C@H](N)C[C@H](c2ccncc2NC(=O)c2ccc(F)c3cc(N4CCc5nn(C)cc5C4)cnc23)C1 [Example 119] | ≤ 100 nM |
| C[C@@H]1C[C@H](N)C[C@H](c2ccncc2NC(=O)c2ccc(F)c3cc(N4CCCCC4C(F)F)cnc23)C1 (stereo partly drawn) [Example 58] | ≤ 100 nM |
| C[C@@H]1C[C@H](N)C[C@H](c2ccncc2NC(=O)c2ccc(F)c3cc(-c4c(F)cccc4F)nnc23)C1 [Example 91] | 1000 to 10000 nM |
| C[C@@H]1C[C@H](N)C[C@H](c2ccncc2NC(=O)c2ccc(F)c3cc(N4CCC(C)(O)CC4)cnc23)C1 [Example 41] | 100 to 1000 nM |
| C[C@@H]1C[C@H](N)C[C@H](c2ccncc2NC(=O)c2ccc(F)c3cc(N(C)CCF)cnc23)C1 [Example 22] | ≤ 100 nM |
| C[C@@H]1C[C@H](N)C[C@H](c2ccncc2NC(=O)c2ccc(F)c3cc(N4CCOC[C@H]4C)cnc23)C1 [Example 32] | ≤ 100 nM |
| C[C@@H]1C[C@H](N)C[C@H](c2ccncc2NC(=O)c2ccc(F)c3cc(N(C)C)cnc23)C1 [Example 25] | ≤ 100 nM |
| C[C@@H]1C[C@H](N)C[C@H](c2ccncc2NC(=O)c2ccc(F)c3cc(N(C)c4cnccc4C(F)(F)F)cnc23)C1 [Example 143] | ≤ 100 nM |
| C[C@@H]1C[C@H](N)C[C@H](c2ccncc2NC(=O)c2ccc(F)c3cc(N4CCCC[C@H]4C)cnc23)C1 [Example 169] | ≤ 100 nM |
| C[C@@H]1C[C@H](N)C[C@H](c2ccncc2NC(=O)c2ccc(F)c3cc(-c4c(F)cc(O)cc4F)cnc23)C1 [Example 18] | ≤ 100 nM |
| C[C@@H]1C[C@H](N)C[C@H](c2ccncc2NC(=O)c2ccc(F)c3cc(N(C)c4ncccc4OC(F)F)cnc23)C1 [Example 139] | ≤ 100 nM |
| C[C@@H]1C[C@H](N)C[C@H](c2ccncc2NC(=O)c2ccc(F)c3cc(N(C)C4CCC4)cnc23)C1 [Example 24] | 100 to 1000 nM |
| CO[C@H]1C[C@H](C)N(c2cnc3c(C(=O)Nc4cnccc4[C@@H]4C[C@H](C)C[C@H](N)C4)ccc(F)c3c2)C1 [Example 157] | ≤ 100 nM |
| C[C@@H]1C[C@H](N)C[C@H](c2ccncc2NC(=O)c2ccc(F)c3cc(N4C5CCC4CC(O)C5)cnc23)C1 (stereo partly drawn) [Example 98] | ≤ 100 nM |
| C[C@@H]1C[C@H](N)C[C@H](c2ccncc2NC(=O)c2ccc(F)c3cc(N4CCN(C)CC4)cnc23)C1 [Example 30] | 100 to 1000 nM |
| COc1ccc(N(C)c2cnc3c(C(=O)Nc4cnccc4[C@@H]4C[C@H](C)C[C@H](N)C4)ccc(F)c3c2)c(C)n1 [Example 144] | ≤ 100 nM |
| C[C@@H]1C[C@H](N)C[C@H](c2ccncc2NC(=O)c2ccc(F)c3cc(N4CCCC[C@@H]4C)cnc23)C1 [Example 170] | 100 to 1000 nM |
| CC(C)[C@H](C)Nc1cnc2c(C(=O)Nc3cnccc3[C@@H]3C[C@H](C)C[C@H](N)C3)ccc(F)c2c1 [Example 53] | 100 to 1000 nM |
| C[C@@H]1C[C@H](N)C[C@H](c2ccncc2NC(=O)c2ccc(F)c3cc(N(C)c4ccccc4F)cnc23)C1 [Example 97] | ≤ 100 nM |

Entry source: patent US9920032B2
